Measured Papp B→A, listed per entry.
- Assay: Caco-2 A-B and B-A permeability test
- Type: in vitro ADME
- Test context: human; Caco-2, basolateral to apical, pH 7.4; read-out: B-A perm

Below are worked cases with known answers.
CN(C)C(=O)C(c1ccccc1)N1CCN(c2ccc(O)cc2)CC1 (centres unmarked): 39.7 ×10⁻⁶ cm/s
CN(C)Cc1ccc(CNCc2ccc3c(c2)OCCO3)cc1: 4.5 ×10⁻⁶ cm/s
CC(C)NCC(O)COc1cccc2ccccc12 (centres unmarked) [propranolol, reference compound]: 24.2 ×10⁻⁶ cm/s
CC(=O)Nc1ccc(CNCCc2cccc(Cl)c2)cc1: 41.6 ×10⁻⁶ cm/s
N#Cc1cccc(CNCc2ccc(CN3CCOCC3)cc2)c1: 13.9 ×10⁻⁶ cm/s

Quick one: Papp B→A for Cc1cc(CN2CC=C(c3ccc(O)cc3)CC2)no1 ?
42.3 ×10⁻⁶ cm/s

Could you do the same for N#Cc1ccc(CNCc2cccc(CN3CCCC3)c2)cc1 , please?
6.5 ×10⁻⁶ cm/s

Could you do the same for COc1cc2c(c(OC)c1OC)-c1ccc(OC)c(=O)cc1[C@@H](NC(C)=O)CC2 [colchicine, reference compound] , please?
13.9 ×10⁻⁶ cm/s

====

Measured IC50, listed per entry.
- System under test: Human Ether-á-go-go-Related-Gene channel (hERG) (Homo sapiens, UniProt Q12809)
- Sequence (Q12809 whole entry): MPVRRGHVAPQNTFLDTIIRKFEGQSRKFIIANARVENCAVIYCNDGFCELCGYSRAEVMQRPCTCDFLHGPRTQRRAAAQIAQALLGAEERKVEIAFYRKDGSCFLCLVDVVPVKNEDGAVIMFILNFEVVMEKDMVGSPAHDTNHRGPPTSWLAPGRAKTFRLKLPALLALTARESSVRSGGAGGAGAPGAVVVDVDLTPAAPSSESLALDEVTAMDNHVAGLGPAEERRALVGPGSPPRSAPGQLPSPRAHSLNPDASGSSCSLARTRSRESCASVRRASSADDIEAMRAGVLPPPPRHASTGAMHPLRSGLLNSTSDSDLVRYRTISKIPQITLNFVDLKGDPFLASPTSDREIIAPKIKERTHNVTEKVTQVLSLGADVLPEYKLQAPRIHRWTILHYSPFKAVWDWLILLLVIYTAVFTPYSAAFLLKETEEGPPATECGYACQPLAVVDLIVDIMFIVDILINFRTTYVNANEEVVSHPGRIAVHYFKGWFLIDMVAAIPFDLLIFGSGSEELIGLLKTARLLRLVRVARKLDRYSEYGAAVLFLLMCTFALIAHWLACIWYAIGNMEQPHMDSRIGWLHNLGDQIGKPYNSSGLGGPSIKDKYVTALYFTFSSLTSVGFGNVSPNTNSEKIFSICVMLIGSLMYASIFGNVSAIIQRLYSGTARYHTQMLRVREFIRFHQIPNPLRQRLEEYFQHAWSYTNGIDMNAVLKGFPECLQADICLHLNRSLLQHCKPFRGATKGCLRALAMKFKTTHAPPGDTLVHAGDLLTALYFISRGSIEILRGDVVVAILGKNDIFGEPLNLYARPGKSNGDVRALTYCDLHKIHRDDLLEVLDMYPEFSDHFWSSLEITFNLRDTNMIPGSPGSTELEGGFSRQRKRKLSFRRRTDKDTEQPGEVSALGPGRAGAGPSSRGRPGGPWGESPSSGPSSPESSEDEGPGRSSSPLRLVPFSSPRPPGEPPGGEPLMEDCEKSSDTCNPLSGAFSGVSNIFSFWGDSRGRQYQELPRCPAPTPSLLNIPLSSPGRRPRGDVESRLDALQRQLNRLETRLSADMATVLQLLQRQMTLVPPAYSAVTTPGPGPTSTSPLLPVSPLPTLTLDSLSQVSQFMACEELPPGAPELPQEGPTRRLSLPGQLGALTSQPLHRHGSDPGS
- Assay: hERG cellular patch-clamp assay (cardiac toxicity)

Cc1cc(CN2CC=C(c3ccc(O)cc3)CC2)no1 [AC0106]: > 10 µM

Quick one: IC50 for N#Cc1cccc(CNCc2ccc(CN3CCOCC3)cc2)c1 [AC0104] ?
> 10 µM

Could you do the same for N#Cc1ccc(CNCc2cccc(CN3CCCC3)c2)cc1 [AC0107] , please?
> 10 µM

Could you do the same for CN(C)C(=O)C(c1ccccc1)N1CCN(c2ccc(O)cc2)CC1 (stereo not drawn) [AC0103] , please?
> 10 µM

Could you do the same for CN(C)Cc1ccc(CNCc2ccc3c(c2)OCCO3)cc1 [AC0102] , please?
> 10 µM

Could you do the same for CC(=O)Nc1ccc(CNCCc2cccc(Cl)c2)cc1 [AC0101] , please?
8 µM

====

- Assay: Caco-2 A-B and B-A permeability test
- Format: in vitro ADME
- Test context: human, Caco-2, pH 7.4
Recorded endpoint: Papp B→A
Kindly write the number and append the unit.

Quick one: Papp B→A for CNC(=C[N+](=O)[O-])NCCSCc1ccc(CN(C)C)o1 [ranitidine, reference compound] ?
3.5 ×10⁻⁶ cm/s
